Molecular target: FL-CHK1 (Homo sapiens)
Construct: C-terminally His-tagged full-length human CHK1 (FL-CHK1); 6xHis (C); made in house; host or cells: baculovirus/insect cells
Sequence (O14757 whole entry): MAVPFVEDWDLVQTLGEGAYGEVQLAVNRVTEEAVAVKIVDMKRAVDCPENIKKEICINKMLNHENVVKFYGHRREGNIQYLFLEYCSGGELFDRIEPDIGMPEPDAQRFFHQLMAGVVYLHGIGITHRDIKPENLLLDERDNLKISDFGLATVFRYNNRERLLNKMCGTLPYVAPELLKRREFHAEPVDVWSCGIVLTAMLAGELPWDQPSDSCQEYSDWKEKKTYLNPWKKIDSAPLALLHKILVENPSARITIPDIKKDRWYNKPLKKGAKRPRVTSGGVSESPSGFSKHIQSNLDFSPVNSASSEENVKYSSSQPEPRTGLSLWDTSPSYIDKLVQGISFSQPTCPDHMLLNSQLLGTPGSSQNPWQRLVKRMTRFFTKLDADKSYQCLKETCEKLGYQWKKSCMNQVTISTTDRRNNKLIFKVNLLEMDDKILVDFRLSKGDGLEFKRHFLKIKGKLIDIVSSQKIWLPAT
Assay: CHK1 assay
Format: biochemical
Conditions: 20 μM; combinatorial library compounds
QUANTITY_KIND: inhibition at 20 µM (%)

Nc1nc(Nc2ccc(S(N)(=O)=O)cc2)sc1-c1nc(-c2ccc(O)cc2)cs1 [drawing 415] | 18.7
Nc1nc(Nc2ccc(S(N)(=O)=O)cc2)sc1-c1nc(-c2ccc(O)c(O)c2)cs1 | 28.5
Nc1nc(Nc2ccc(S(N)(=O)=O)cc2)sc1-c1nc(-c2csc3ccccc23)cs1 | 0.4
CCN(CC)c1ccc(-c2csc(-c3sc(Nc4ccc(S(N)(=O)=O)cc4)nc3N)n2)cc1 | 6.1
CCc1cc2c(cc1-c1csc(-c3sc(Nc4ccc(N(C)C)cc4)nc3N)n1)C(C)(C)CCC2(C)C | 18.8

(I) CN(C)c1ccc(Nc2nc(N)c(-c3nc(-c4ccc(-c5ccccc5)cc4)cs3)s2)cc1
(II) Nc1nc(Nc2ccc(S(N)(=O)=O)cc2)sc1-c1nc(-c2cccc(Br)c2)cs1
Ask | Select one: I or II . Criterion: greater recorded inhibition at 20 µM. When you have decided, please share the label of that item.
Reply | II
(II: 16.4%, I: 5%)
